// reported cytotoxicity at 10 µM per item
Experiment: Toxicity liver stage against HepG2, at 10uM
Format: cell-based
Set-up: test concentration 10 uM, cell line HepG2-A16-CD81EGFP
Conditions: human, HepG2-A16-CD81EGFP cells; read-out: INHIBITION

>  <molecule>
Cc1cn(Cc2nc(CC(C)C)nn2-c2ccccn2)c(=O)[nH]c1=O

>  <cytotoxicity at 10 µM / %>
-8.66

$$$$
>  <molecule>
O=C(NCC1(O)CCOc2ccccc21)Nc1ccccc1 (stereo not drawn)

>  <cytotoxicity at 10 µM / %>
-4.2

$$$$
>  <molecule>
Cc1ccc(NC2CCN(C(=O)C(C)n3cncn3)CC2)nn1 (stereo not drawn)

>  <cytotoxicity at 10 µM / %>
-14.2

$$$$
>  <molecule>
CC(=O)c1ccc(N2CCC3(CC2)CC(=O)N(C)C3)nc1

>  <cytotoxicity at 10 µM / %>
-1.66

$$$$
>  <molecule>
O=C(OCc1ccccc1)C1CCCN1Cc1nc(C2CC2)no1 (stereo not drawn)

>  <cytotoxicity at 10 µM / %>
-5.43

$$$$
>  <molecule>
COCC1CN(S(=O)(=O)N(C)C)Cc2cnn(CC3CCCC3)c21 (stereo not drawn)

>  <cytotoxicity at 10 µM / %>
12.4

$$$$
>  <molecule>
O=C(NCC(O)c1cccc(F)c1)c1cccnc1O (stereo not drawn)

>  <cytotoxicity at 10 µM / %>
-1.68

$$$$
>  <molecule>
O=c1cc(CN2CC[C@@]3(O)CCCC[C@H]3C2)c2cccc3c2n1CCC3

>  <cytotoxicity at 10 µM / %>
-0.948

$$$$
>  <molecule>
CC1CN(C(=O)NCc2cnn(-c3ccc(F)cc3F)c2)CCO1 (stereo not drawn)

>  <cytotoxicity at 10 µM / %>
2.18

$$$$
>  <molecule>
Cc1cnn(C2CN(CC(=O)Nc3cccnc3)C2)c1

>  <cytotoxicity at 10 µM / %>
-8.11

$$$$
>  <molecule>
O=C(c1ccc(O)nc1)N1CCN(C(=O)c2ccc(F)cc2F)CC1

>  <cytotoxicity at 10 µM / %>
-1.35

$$$$
>  <molecule>
CC(=O)Nc1ncc(S(=O)(=O)Nc2ccc(F)cc2)s1

>  <cytotoxicity at 10 µM / %>
0.976

$$$$
>  <molecule>
CC(=O)NCCNC(=O)CN1CCOC(Cn2cccn2)C1 (stereo not drawn)

>  <cytotoxicity at 10 µM / %>
-7.6

$$$$
>  <molecule>
CNC(=O)[C@@H](C1CCCCC1)N1CCC[C@H]1C(=O)NCCN1CCCC1

>  <cytotoxicity at 10 µM / %>
-4.31

$$$$
>  <molecule>
Cc1nn(CCNC(C)Cn2ccnc2)c(C)c1Cl (stereo not drawn)

>  <cytotoxicity at 10 µM / %>
-5.19

$$$$
>  <molecule>
CCNc1ncc(C(=O)N[C@H](C(N)=O)c2ccccc2)cn1

>  <cytotoxicity at 10 µM / %>
10.6

$$$$
>  <molecule>
O=C(NC1CCCC1)c1nc2c(o1)CN(C(=O)CCO)C2

>  <cytotoxicity at 10 µM / %>
5.38

$$$$
>  <molecule>
CCc1nnc2n1CCN(CC(=O)N(CC)C1=CCCCC1)C2

>  <cytotoxicity at 10 µM / %>
-0.0192

$$$$
>  <molecule>
c1cnc(N2CCc3onc(CN4CCOCC4)c3C2)cn1

>  <cytotoxicity at 10 µM / %>
14.1

$$$$
>  <molecule>
Cc1nc2c(c(N3CC=CC3)n1)CCN(c1ncccc1C(N)=O)CC2

>  <cytotoxicity at 10 µM / %>
-10.2

$$$$
>  <molecule>
Cc1nc(-c2cccc(C(=O)N(C)C)c2)cs1

>  <cytotoxicity at 10 µM / %>
1.77

$$$$
>  <molecule>
CN1CCC2(CCN(S(=O)(=O)c3ccc(-c4cnco4)s3)CC2)C1

>  <cytotoxicity at 10 µM / %>
-0.0395

$$$$
>  <molecule>
CC(C)(CO)CCCNC(=O)N1CCc2c(F)ccc(F)c2C1

>  <cytotoxicity at 10 µM / %>
-2.18

$$$$
>  <molecule>
CN(C)C(=O)[C@@H]1C[C@@H]2[C@@H](CCN2Cc2nccs2)O1

>  <cytotoxicity at 10 µM / %>
-1.42

$$$$
>  <molecule>
CCNC(=O)N(C)Cc1ccc(SC)c(OC)c1

>  <cytotoxicity at 10 µM / %>
-13.1

$$$$
>  <molecule>
COC(C)(C)C(=O)N[C@H]1CN(c2nccnc2N(C)C)C[C@@H]1C(C)C

>  <cytotoxicity at 10 µM / %>
4.24

$$$$
>  <molecule>
CN(C)C(=O)CN1CCOCC2(CCN(CC3CCOC3)CC2)C1 (stereo not drawn)

>  <cytotoxicity at 10 µM / %>
7.54

$$$$
>  <molecule>
C=C(C)COc1cccc(C(=O)N(C)Cc2cc(CC)no2)c1

>  <cytotoxicity at 10 µM / %>
-3.42

$$$$
>  <molecule>
CC(C)n1nnc(CC(=O)NCC2(c3cccc(F)c3)CCCC2)n1

>  <cytotoxicity at 10 µM / %>
4.5

$$$$
>  <molecule>
CS(=O)(=O)NCc1cc(=O)n2c(n1)CN(Cc1ccco1)CCC2

>  <cytotoxicity at 10 µM / %>
7.25

$$$$
>  <molecule>
Nc1ncc(-c2ccc(Cl)cc2)c(C2CCCNC2)n1 (stereo not drawn)

>  <cytotoxicity at 10 µM / %>
-7.64

$$$$
>  <molecule>
CSc1c(CC(=O)O)n(C)c2ccccc12

>  <cytotoxicity at 10 µM / %>
3.79

$$$$
>  <molecule>
O=C(NCCn1ccnc1)c1cc(Br)c[nH]1

>  <cytotoxicity at 10 µM / %>
-5.2

$$$$
>  <molecule>
CC1CN(Cc2nnsc2Cl)CCN1c1nccs1 (stereo not drawn)

>  <cytotoxicity at 10 µM / %>
-39.3

$$$$
>  <molecule>
CCCn1nc2c(cc1=O)CN(CCCS(N)(=O)=O)CC2

>  <cytotoxicity at 10 µM / %>
-2.48

$$$$
>  <molecule>
CCC(CO)N(Cc1cccnc1)C(=O)c1ccoc1C (stereo not drawn)

>  <cytotoxicity at 10 µM / %>
-0.0979

$$$$
>  <molecule>
CCOc1ccc(C#N)cc1NC(=O)N1CCC(N2CCCC2)C1 (stereo not drawn)

>  <cytotoxicity at 10 µM / %>
-7.35

$$$$
>  <molecule>
Cc1ccc(C)c(C(C(=O)O)N2CCCN(Cc3ccccn3)CC2)c1 (stereo not drawn)

>  <cytotoxicity at 10 µM / %>
-15.6

$$$$
>  <molecule>
COCCn1ccnc1C1CCN(Cc2ccccc2C#N)CC1

>  <cytotoxicity at 10 µM / %>
-10.2

$$$$
>  <molecule>
CCOC(=O)CNC(=O)N1CCOC(CCc2ccccc2)C1 (stereo not drawn)

>  <cytotoxicity at 10 µM / %>
-4.41

$$$$
>  <molecule>
COCCOC(=O)N1CC2=CC(C)(C)COc3ccc(OC)c(c32)C1

>  <cytotoxicity at 10 µM / %>
1.22

$$$$
>  <molecule>
CCN(CCC(=O)OC)C(=O)c1cccc(Cn2nc(C)cc2C)c1

>  <cytotoxicity at 10 µM / %>
7.59

$$$$
>  <molecule>
COCCCN1CCN(c2ncnc3nc(C)cc(C)c23)CC1

>  <cytotoxicity at 10 µM / %>
1.54

$$$$
>  <molecule>
COc1ccccc1CNc1c(O)c(=O)c1=O

>  <cytotoxicity at 10 µM / %>
4.65

$$$$
>  <molecule>
Cc1csc(C2(NCc3nc(-c4ccco4)no3)CCCC2)n1

>  <cytotoxicity at 10 µM / %>
3.18

$$$$
>  <molecule>
O=C(CCn1ccc2ncccc2c1=O)N1CCCC1

>  <cytotoxicity at 10 µM / %>
-1.93

$$$$
>  <molecule>
O=C1CCC(C(=O)N2CCOC(Cc3cccc4ccccc34)C2)=NN1 (stereo not drawn)

>  <cytotoxicity at 10 µM / %>
-3.86

$$$$
>  <molecule>
c1cnc2ccc(C[C@@H]3CC[C@H](CN4CCCOCC4)O3)cc2c1

>  <cytotoxicity at 10 µM / %>
-1.6

$$$$

* * *

cytotoxicity at 10 µM overview
Assay: Toxicity liver stage against HepG2, at 10uM
Type: cell-based
Set-up: test concentration 10 uM, cell line HepG2-A16-CD81EGFP
Conditions: human, HepG2-A16-CD81EGFP cells; read-out: INHIBITION
reported property: cytotoxicity at 10 µM (%)

>  <molecule>
Cc1n[nH]c(C)c1CN(C)C(C(=O)O)c1c(F)cccc1OC(C)C (centres undefined)

>  <test value>
-56.1

$$$$
>  <molecule>
CC(=O)N1CCC(c2nccnc2Oc2ccccc2)CC1

>  <test value>
3.7

$$$$
>  <molecule>
COc1ccc(CCNC(C)c2ccc3[nH]c(=O)[nH]c3c2)cc1OC (centres undefined)

>  <test value>
-16.8

$$$$
>  <molecule>
CSc1nccc(N2CCC(=O)N(CC3CC3)C(C(C)C)C2)n1 (centres undefined)

>  <test value>
-2.02

$$$$
>  <molecule>
Cc1cncc(C2CCCN(CC3CCC3)C2)n1 (centres undefined)

>  <test value>
-7.41

$$$$
>  <molecule>
NC(=O)CNC(=O)c1cc(Cn2cnc3ccccc32)[nH]n1

>  <test value>
-4.2

$$$$
>  <molecule>
O=C(C1CC(c2cccc(F)c2)=NO1)N1CCc2ccccc21 (centres undefined)

>  <test value>
2.46

$$$$
>  <molecule>
CCn1cc(-c2cc(-c3cc(CC(=O)O)cs3)nc(N)c2C#N)c(C)n1

>  <test value>
1.16

$$$$
>  <molecule>
CC(=O)N(Cc1noc(C)n1)C1CCN(Cc2cc(C)on2)C1 (centres undefined)

>  <test value>
4.38

$$$$
>  <molecule>
Cc1noc([C@H]2C[C@@H]3CCN(c4nnc(C)s4)C[C@H]3O2)n1

>  <test value>
3.55

$$$$
>  <molecule>
CN1CC(c2ccccc2)CC2(CCN(CC(=O)N(C)C)CC2)C1 (centres undefined)

>  <test value>
-12.5

$$$$
>  <molecule>
O=C(NC1CC1)c1cc(NC(=O)N2CCOCC2)ccc1Cl

>  <test value>
-4.15

$$$$
>  <molecule>
COc1coc(CN2CCCC(CCc3c(F)cccc3F)C2)cc1=O (centres undefined)

>  <test value>
1.18

$$$$
>  <molecule>
COC(=O)c1sccc1S(=O)(=O)N1CCc2c(ncnc2N(C)C)C1

>  <test value>
-1.6

$$$$
>  <molecule>
CC(Nc1cccc(CN2CCOC2=O)c1)C(=O)N1CCNC1=O (centres undefined)

>  <test value>
-1.63

$$$$
>  <molecule>
CC(=O)N1CCCN(C(=O)NCCOc2ccc3c(c2)CCC3)CC1

>  <test value>
-1.84

$$$$
>  <molecule>
CCn1nc(C)cc1NC(=O)CCn1nc(C)c(Br)c1C

>  <test value>
10.8

$$$$
>  <molecule>
CC(=O)c1c(N(C)C)ccnc1C(F)(F)F

>  <test value>
1.1

$$$$
>  <molecule>
Cc1c(NC(C)C(C)C)cccc1C(=O)NCc1nnc(C)n1C (centres undefined)

>  <test value>
6.45

$$$$
>  <molecule>
COc1ccc(NCc2ccccc2N2CCN(C(C)=O)CC2)cn1

>  <test value>
1.85

$$$$
>  <molecule>
CC(C)CC(=O)N1CC[C@H]2N(C)CC[C@@]2(C(=O)Nc2ccccc2)CC1

>  <test value>
-4.71

$$$$
>  <molecule>
Cc1cccc(C(=O)N(C)Cc2cc(Br)cs2)n1

>  <test value>
-5.1

$$$$
>  <molecule>
Cc1cc(C)n(CC2CN(CCOc3ccccc3C#N)CCO2)n1 (centres undefined)

>  <test value>
-3.71

$$$$
>  <molecule>
CNc1nc(CNC(=O)Nc2cccc(OC)c2)cs1

>  <test value>
-3.28

$$$$
